# target_of_assay: UniProtKB Q9NWZ3
# Sequence (Q9NWZ3 1-460): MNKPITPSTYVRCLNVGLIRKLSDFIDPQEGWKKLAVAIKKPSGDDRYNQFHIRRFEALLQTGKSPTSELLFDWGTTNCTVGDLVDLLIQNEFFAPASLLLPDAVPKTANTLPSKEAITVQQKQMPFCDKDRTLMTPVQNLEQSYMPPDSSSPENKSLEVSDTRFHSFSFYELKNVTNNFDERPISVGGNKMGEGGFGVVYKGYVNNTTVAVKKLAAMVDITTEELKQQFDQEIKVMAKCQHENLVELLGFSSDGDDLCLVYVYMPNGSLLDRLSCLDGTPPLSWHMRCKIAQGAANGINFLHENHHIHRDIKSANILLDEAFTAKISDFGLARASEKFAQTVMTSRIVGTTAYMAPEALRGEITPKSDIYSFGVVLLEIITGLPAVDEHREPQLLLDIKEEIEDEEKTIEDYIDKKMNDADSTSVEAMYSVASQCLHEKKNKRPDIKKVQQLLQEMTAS
# assay_protocol: ALE THP1 HTRF (IRAK4 degradation in THP1 cells, HTRF with anti-IRAK4 antibodies)
# Format: cell-based
# Set-up: THP1 Homogeneous Time Resolved Fluorescence (ALE THP1 HTRF) Procedure; endogenous in cells; host or cells: THP1
# assay_conditions: THP1 cell lysate, read-out: ALE THP1 HTRF EC50
Structures can show the parent of a compound that is named as a salt.
assay_endpoint: DC50 (nM)

[a] N[C@@H]1C[C@@H](F)CN(c2ccn3ncc(C(=O)Nc4cn([C@H]5CC[C@H](CCN6CCC(c7ccc(C8CCC(=O)NC8=O)cc7)CC6)CC5)nc4C(F)F)c3n2)C1 (stereo partly drawn) [Compound P-20]
[b] N[C@@H]1C[C@@H](F)CN(c2ccn3ncc(C(=O)Nc4cn([C@H]5CC[C@H](C(=O)NC6CCN(c7ccc(C8CCC(=O)NC8=O)cn7)CC6)CC5)nc4C(F)F)c3n2)C1 (stereo partly drawn) [Compound P-32, hydrochloride]
Incoming: Which is greater in DC50, the first item a or the second item b ? Answer format: the label of the selected item.
Outgoing: a
(a: 11 nM, b: 5 nM)
